# Test system: CJI2332
# Assay type: cell-based, Corynebacterium stationis
Parameter: resistance (µg/mL)
Reply with just the number (in µg/mL).

- COc1cc(Cc2cnc(N)nc2N)cc(OC)c1OC [Trimethoprim]: 100

For the next question, use this compound.
The measured resistance associated with [H]/N=C(/N)NS(=O)(=O)c1ccc(N)cc1 [Sulfaguanidine] reads 200
